Tested on: MS2 coat protein
Test: apparent Kd, MS2 coat protein; higher = weaker binding; RNA-MaP array; FMN 200 µM where present
Conditions: designed as: OFF switch for flavin mononucleotide; no ligand
Kindly return Criterion met if reported apparent Kd is no lower than 10 nM; return Criterion not met if it is lower.

GGGUCAUAUGUUAGGAUAUUGGAGGCAAGUGCCGUUAAGAAGGAACAUGAGGAUCACCCAUGUCUAACUGACUU | Criterion met
GGAAAACAUGAGGAUCACCCAUGUGAGGAUAUCGAUGUCCAGAGGGAGGUGCGGGACUCGAGAAGGCACUUGGA | Criterion met
GCGGGUAAAGCAGGAUAUCUAAUGUCACGGAAACAUGAGGAUCACCCAUGUAGAGAAGGGCUAAGUCAUACAAUUCGAAUUUGC | Criterion not met
UAGAUGGGAGGAUAUGCAUAGAUACAGAUUCGUGUAGUGCUACAUGAGGAUCACCCAUGUAGAAGGCCCGUCUU | Criterion met
CUACGUGUCGAGAAGGGCUCACGUAACGGAACAGCAGGAUAUCGACAUGAGGAUCACCCAUGUCGGAACGAACGGAUCUUUAAU | Criterion not met
UGUCCAUAGCAGAAGGCACAUCCACAAAAUAAAACAUGAGGAUCACCCAUGUGAGGAUAUGCUAUGGACUAAGAGCGAAAGCUC | Criterion not met

Let us examine a further case.
Q: Reported apparent Kd reaches at least 10 nM for "UUGUUAUAUGUAGGAUAUGCAUAUUAUUAUUAUGCAGAAGGACAUGAGGAUCACCCAUGUAUAUUAUUGUUAUAUGUUAUAUAU" ?
Result: Criterion met

----------
apparent Kd for assorted sequences
Test system: MS2 coat protein
Test: apparent Kd, MS2 coat protein; higher = weaker binding; RNA-MaP array; theophylline 2 mM where present
Conditions: designed as: OFF switch for theophylline; no ligand
Numbers only; they are read as nM.

UACAUGAGGAUCACCCAUGUAUAGAGGGAUACCAGUGUCAGUGAGCACCCUUGGCAGCCCGCGAACAAUGGGUGCGCUAUAUAGU | 26.3
AUAAGUAAUGUUUCGUGUAUUAUUACAGAUACCAGACUAUACGUUGUCCCUUGGCAGCUGGAUUACAUGAGGAUCACCCAUGUUG | 15.8
CGAUGAUGAAGGGAUACCAGAAAUGGUAUUCCUUUAUUUCUUACAUGAGGAUCACCCAUGUUCCCUUGGCAGCUUUUUAUCAUCG | 75.7
ACAUCCAGGUUAAUCGUGGGCAUACUCGAUACCAGUAUUUUAAUCUACCCUUGGCAGCGACAUGAGGAUCACCCAUGUGCGAUGA | 12.4
AUAUGGCGAGAUGAUACCAGACACAUGAGGAUCACCCAUGUUGAUGGUAAGUCUGCAUAUGUCCCUUGGCAGCAUAGCGACAUAU | 8.27

Q: Please report apparent Kd with MS2 coat protein for item "GGUCUCUGGAGCGAUACCAGCUUGAUCGUACUGGCCUGGUACAUGAGGAUCACCCAUGUAAGCCCUUGGCAGCGCUCCAGAGACC" .
Result: 12.3

Q: // output apparent Kd; input "GUGGAGACACGAGAUACCAGUCUCUAUAACAUGAGGAUCACCCAUGUAAUGCUCCUCAGGGACCCUUGGCAGCUCAGUAUGAUGA" ; system MS2 coat protein
Result: 32.9
